Data provenance is ChEMBL document CHEMBL1201862.

# maps each entry to its GI50
- Tested on: NCI/ADR-RES
- EXPERIMENT SUMMARY: NCI tumour cell line growth inhibition, 48 h
The source made the active and inactive calls. Rule as the data show it: active = GI50 up to about 1.1 µM and inactive = higher.

Consider the worked cases shown below.
compound="CCCCCCCCCCCCCCCCOP(=O)(O)OP(=O)(O)OCC1OC(n2ccc(N)nc2=O)CC1O (centres undefined)" recorded_endpoint=GI50 result="> 100 µM (inactive)"
compound=CN(C)CCO/N=C1/C=C2CC[C@H]3[C@@H]4CC[C@H](O)[C@@]4(C)CC[C@@H]3[C@@]2(C)CC1 recorded_endpoint=GI50 result="3.18 µM (inactive)"
compound=Cc1nc2n(c1/C=C1/C(=O)Nc3cccc(Cl)c31)CCS2 recorded_endpoint=GI50 result="31.1 µM (inactive)"
compound="COc1ccc(-c2csc3c2[N+]2(C)C=CC=C2C3N2CCCC2)cc1 (centres undefined)" recorded_endpoint=GI50 result="17.3 µM (inactive)"
compound=CC(C(=O)NCCNC(=O)CCC(=O)N(C)O)C(=O)NCCNC(=O)CCC(=O)N(C)O recorded_endpoint=GI50 result="> 100 µM (inactive)"
compound="COC1C(OC(=O)/C=C/C=C/C=C/C=C\\C(=O)O)CCC2(CO2)C1C1(C)OC1CC=C(C)C (centres undefined)" recorded_endpoint=GI50 result="> 100 µM (inactive)"

[Q] Give its GI50 value. Item: C=C(C)C(=O)OC1C[C@H](COC(C)=O)C2CC=C(CO)C2C2OC(=O)C(=C)[C@H]12 (some centres undefined)
[A] 45.4 µM (inactive)

[Q] Give its GI50 value. Item: C/C(=N\O)c1ccc2cc(Br)c3ccccc3c2c1
[A] 19.9 µM (inactive)

[Q] Give its GI50 value. Item: Nc1nc(Cl)c(C=O)c(NCC2(CO)CC(CCc3ccccc3)C2)n1 (centres undefined)
[A] 16.2 µM (inactive)

---

- Tested on: UACC-257
- EXPERIMENT SUMMARY: NCI tumour cell line growth inhibition, 48 h
The source made the active and inactive calls. Rule as the data show it: active = GI50 up to about 1.1 µM and inactive = higher.
RECORDED ENDPOINT: GI50

Consider the worked cases shown below.
compound=CCOc1ccc(-c2oc(/C=N/NS(=O)(=O)c3ccc(C)cc3)c([N+](=O)[O-])c2-c2ccc(OCC)cc2)cc1 recorded_endpoint=GI50 result="16 µM (inactive)"
compound=CCOC(=O)c1cn2c(n1)sc1cc([N+](=O)[O-])ccc12 recorded_endpoint=GI50 result="> 100 µM (inactive)"
compound="COc1ccc(-c2c(C#N)c(O)n(C3OC(CO)C(O)C(O)C3O)c(=S)c2C#N)cc1 (centres undefined)" recorded_endpoint=GI50 result="> 100 µM (inactive)"
compound=CC[C@@]12C=CC(=S)N(CCSc3ccccc3)[C@@H]1c1c(n(S(=O)(=O)c3ccc(OC)cc3)c3ccccc13)CC2 recorded_endpoint=GI50 result="> 100 µM (inactive)"
compound=N#Cc1cccnc1Cl recorded_endpoint=GI50 result="> 100 µM (inactive)"
compound=CCOC(=O)N1CCC(N[C@@H]2c3cc4c(cc3[C@@H](c3cc(OC)c(O)c(OC)c3)[C@H]3C(=O)OC[C@@H]32)OCO4)CC1 recorded_endpoint=GI50 result="6.55 µM (inactive)"

[Q] Give its GI50 value. Item: CCC1CCC2C3CC=C4CC(OC(C)=O)C(N)CC4(C)C3CCC12C (centres undefined)
[A] 2.17 µM (inactive)

[Q] Give its GI50 value. Item: CCCc1cc(=O)oc2c3c(c4c(c12)OC(C)(C)CC4)O[C@@H](C)[C@H](C)[C@H]3O
[A] 4.94 µM (inactive)

[Q] Give its GI50 value. Item: C#CCN1C(=O)CN2C(Cl)(Cl)C2(c2ccccc2)c2cc(Cl)ccc21 (centres undefined)
[A] 36.3 µM (inactive)
